These entries and their values trace back to PubChem BioAssay (Tox21).

Molecular target: Androgen receptor (Homo sapiens)
Assay: qHTS assay to identify small molecule antagonists of the androgen receptor (AR) signaling pathway (AID 743035)
Details: HEK293 AR-UAS-bla, R1881-stimulated, beta-lactamase FRET, 16 h; series mostly up to 58.5 µM
Records with an inconclusive call do not appear. Calls of active or inactive are those of the source. Calls come from the whole dose curve; as a rule, active = well fitted inhibition curve with a large enough effect in the signal ratio in the repeat runs (not every such curve was filed as active); inconclusive = weak or mixed curves, or effect the other way; inactive = no such curve, though single readings can be large or run the other way; the % refers to the signal ratio.
Classes used: active, inactive

compound: CCO[C@H](Cc1ccc(OCCc2ccc(OS(C)(=O)=O)cc2)cc1)C(=O)O
target of assay: Androgen receptor (Homo sapiens)
class: inactive

compound: C[C@@H](c1ncncc1F)C(O)(Cn1cncn1)c1ccc(F)cc1F (some centres undefined)
target of assay: Androgen receptor (Homo sapiens)
class: inactive

compound: O=CC1CC=CCC1 (centres undefined)
target of assay: Androgen receptor (Homo sapiens)
class: inactive

compound: CCC(=O)O[C@]1(C(=O)CCl)[C@@H](C)C[C@H]2[C@@H]3CCC4=CC(=O)C=C[C@]4(C)[C@@]3(F)[C@@H](O)C[C@@]21C
target of assay: Androgen receptor (Homo sapiens)
class: active
